Conditions: human, serum;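 also: human clinical chemistry: moderate when serum ALT or AST reaches 6× upper normal limit or alkaline phosphatase 1.7×, value counts indexed literature references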
Classification field: True = Hepatotoxicity (moderate) at or over 4; False = Hepatotoxicity (moderate) under 4.

- molecule: "C=CCC(C(=O)NC(N)=O)C(C)C (stereo not given) [APRONAL]"
  class name: "False"
- molecule: "O=C(O)CCNC(=O)c1ccc(/N=N/c2ccc(O)c(C(=O)O)c2)cc1 [BALSALAZIDE]"
  class name: "False"
- molecule: "CN(Cc1cc(Br)cc(Br)c1N)C1CCCCC1 [BROMHEXINE]"
  class name: "False"
- molecule: "CC(=O)[C@H]1CC[C@H]2[C@@H]3CCC4=CC(=O)CC[C@]4(C)[C@H]3CC[C@]12C [PROGESTERONE]"
  class name: "False"
- molecule: "CO/N=C(\\C(=O)N[C@@H]1C(=O)N2C(C(=O)O)=C(CSc3cnns3)CS[C@H]12)c1csc(N)n1 [CEFUZONAM]"
  class name: "True"
- molecule: "CN1C[C@H](CC#N)C[C@@H]2c3cccc4[nH]c(Cl)c(c34)C[C@H]21 [LERGOTRILE]"
  class name: "True"
- molecule: "NCc1ccccc1CC(=O)N[C@@H]1C(=O)N2C(C(=O)O)=C(CSc3nnnn3CC(=O)O)CS[C@H]12 [CEFORANIDE]"
  class name: "True"
- molecule: "O=C(O)CCC(=O)c1ccc(-c2ccccc2)cc1 [FENBUFEN]"
  class name: "True"
- molecule: "CC1(C)CC(=O)N(CCCCN2CCN(c3ncccn3)CC2)C(=O)C1 [GEPIRONE]"
  class name: "False"
- molecule: "Cn1nnnc1SCC1=C(C(=O)O)N2C(=O)[C@@H](NC(=O)[C@H](O)c3ccccc3)[C@H]2SC1 [CEFAMANDOLE]"
  class name: "True"
- molecule: "CC(N)C12CC3CC(CC(C3)C1)C2 (stereo not given) [RIMANTADINE]"
  class name: "False"
- molecule: "CNC1Cc2ccccc2N(C)c2ccccc21 (stereo not given) [METAPRAMINE]"
  class name: "False"
- molecule: "C=CCNc1nc(NCC=C)nc(N2CCN(C(c3ccc(F)cc3)c3ccc(F)cc3)CC2)n1 [ALMITRINE]"
  class name: "False"
- molecule: "CCCCOCC(CN1C(=O)N(CC(COCCCC)OC(N)=O)C(=O)C(CC)(c2ccccc2)C1=O)OC(N)=O (stereo not given) [DIFEBARBAMATE]"
  class name: "False"
- molecule: "CN(C)[C@@H]1C(O)=C(C(N)=O)C(=O)[C@@]2(O)C(O)=C3C(=O)c4c(O)cccc4[C@@](C)(O)[C@H]3C[C@@H]12 [TETRACYCLINE]"
  class name: "False"
- molecule: "CN(CCOc1ccc(CC2SC(=O)NC2=O)cc1)c1ccccn1 (stereo not given) [ROSIGLITAZONE]"
  class name: "True"
- molecule: "C#C[C@]1(O)CC[C@H]2[C@@H]3CCC4=CC(=O)CCC4=C3C=C[C@@]21CC [GESTRINONE]"
  class name: "False"
- molecule: "CCN[C@@H]1C[C@H](N)[C@@H](O[C@H]2OC(CN)=CC[C@H]2N)[C@H](O)[C@H]1O[C@H]1OC[C@](C)(O)[C@H](NC)[C@H]1O [NETILMICIN]"
  class name: "True"
